assay: Cell viability of replicon cell line (CellTiter-Glo); assay type: cell-based; settings: hamster, APC-126 cells (BHK-derived, stable RSV A2 replicon); APC-126, CellTiter-Glo
measurement_type: CC50 at 3 days (µM)
Answer format: numeric, µM implied, no suffix.

# input Quick one: CC50 at 3 days for COc1cc(C(=O)NC[C@](O)(c2cc(C(C)(C)O)c(F)c(-c3ccc(F)cc3)n2)C(F)(F)F)cc2cc(C)nnc12 ?
# output 11

---

assay: in vitro; conditions: rhesus monkey, Median CC50, LLC-MK2, parallel to HMPV assay
measurement_type: CC50 (µM)
Answer format: numeric, µM implied, no suffix.

# input Quick one: CC50 for COc1cc(C(=O)NC[C@](O)(c2cc(C(C)(C)O)c(F)c(-c3ccc(F)cc3)n2)C(F)(F)F)cc2cc(C)nnc12 ?
# output 14
